Value source: patent US9481870B2

System: purified TPM
Method Summary: Specificity 2 to amino group donor: typical substrates of ω-amino acid transaminase (Example 11)
Type: biochemical, Pseudomonas sp. MV37
Measurement Setup: amino group donor 14 mM, pyruvic acid 14 mM, pH 7.5, 30° C., 1 hour; (S)-1-phenethylamine = 100
Catalogue of molecules with associated Relative activity (%)
Numbers only; they are read as %.

Solved cases (3 shown):
{"columns": ["Molecule", "Relative activity (%)"],
 "data": [
  ["NCCCC[C@H](N)C(=O)O", 0],
  ["C[C@H](N)c1ccccc1 [(S)-α-phenethylamine]", 100],
  ["NCCC(=O)O", 0]
]}

Entry NCCCC(=O)O , purified TPM data, Relative activity (%) value: 0

The molecule NCCS(=O)(=O)O on purified TPM: Relative activity (%) was 0

Relative activity (%) value, target or system purified TPM, for NCCCCN : 0

----------
compounds and their reported Relative activity (%)
Tested on: purified TPM
Method Summary: Specificity to amino group receptor (Example 12)
Type: biochemical, Pseudomonas sp. MV37
Measurement Setup: substrate concentration 2.5 mM, (S)-1-phenethylamine 25 mM, pH 7.0, 30° C., 5 minutes
A complete answer gives the number and then names the unit.

Reference set (5 entries):
{"columns": ["Compound", "Relative activity (%)"],
 "data": [
  ["CCOC(=O)CC(=O)c1ccccc1 [Benzoylacetic acid ethyl]", "13%"],
  ["CC(=O)CCc1ccccc1 [Benzylacetone]", "12%"],
  ["O=C1CCN(Cc2ccccc2)C1 [1-benzyl-3-pyrrolidinone]", "4.7%"],
  ["CC(=O)c1cnccn1 [Acetylpyrazine]", "23%"],
  ["CCCCCC(C)=O [2-heptanone]", "4.6%"]
]}

Record summary for CC(=O)c1ccccn1 [2-acetylpyridine] : reported Relative activity (%) = 16%

Item: O=C1CCc2ccccc2C1 [2-tetralone] | Relative activity (%): 17%

Input CCCC=O [Butylaldehyde] . Output Relative activity (%): 7%

The compound listed as O=C(Cc1ccccc1)c1ccccc1 [Benzyl phenyl ketone] has a reported Relative activity (%) of 3.8%
